// provenance: the supplement of paper PMC10065799

biological target: MERTK (UniProt Q12866); test: phosphorylation enrichment, bacterial display (enrichment ratio); higher = better substrate or ligand; peptides without Tyr show the background;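 further: 11-residue human phosphosite peptides and single-mutation variants displayed on the E. coli surface, counted by deep sequencing, each peptide's frequency after selection divided by its frequency in the unselected input library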;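 further: frequency after pTyr selection over input frequency; kinase dosed for 20-30% of maximal phosphorylation in three min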
Sequence (Q12866 whole entry, looked up): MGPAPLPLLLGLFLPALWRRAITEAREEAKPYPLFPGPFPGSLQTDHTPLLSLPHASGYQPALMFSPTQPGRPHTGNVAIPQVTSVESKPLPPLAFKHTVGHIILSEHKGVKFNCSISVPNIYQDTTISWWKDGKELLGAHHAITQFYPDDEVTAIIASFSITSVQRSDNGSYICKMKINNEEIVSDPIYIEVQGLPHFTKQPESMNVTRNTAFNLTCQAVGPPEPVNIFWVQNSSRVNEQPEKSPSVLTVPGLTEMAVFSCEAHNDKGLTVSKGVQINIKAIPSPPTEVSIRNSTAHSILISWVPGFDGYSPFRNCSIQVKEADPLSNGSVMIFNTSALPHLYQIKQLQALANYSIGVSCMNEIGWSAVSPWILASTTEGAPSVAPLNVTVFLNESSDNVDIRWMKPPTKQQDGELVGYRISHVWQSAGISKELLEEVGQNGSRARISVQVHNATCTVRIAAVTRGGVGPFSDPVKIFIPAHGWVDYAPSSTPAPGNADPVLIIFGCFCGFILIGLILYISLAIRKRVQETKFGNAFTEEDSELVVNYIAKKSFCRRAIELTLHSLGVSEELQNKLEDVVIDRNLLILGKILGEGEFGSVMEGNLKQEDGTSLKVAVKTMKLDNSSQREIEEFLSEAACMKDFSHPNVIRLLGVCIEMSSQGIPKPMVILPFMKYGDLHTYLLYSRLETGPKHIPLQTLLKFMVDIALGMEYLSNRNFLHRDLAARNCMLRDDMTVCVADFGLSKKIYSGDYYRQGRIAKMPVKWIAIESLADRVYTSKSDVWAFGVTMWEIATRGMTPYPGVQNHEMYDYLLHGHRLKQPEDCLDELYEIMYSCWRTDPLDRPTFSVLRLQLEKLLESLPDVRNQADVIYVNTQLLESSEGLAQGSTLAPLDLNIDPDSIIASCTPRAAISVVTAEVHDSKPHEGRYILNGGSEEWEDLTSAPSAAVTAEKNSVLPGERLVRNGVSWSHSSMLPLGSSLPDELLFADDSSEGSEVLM
test_readout: phosphorylation enrichment

In plain terms, GEEIKYTLWLS [OTC_Y55_M56T] has a documented phosphorylation enrichment of 0.512

In plain terms, RETLTYAQAQR [BRD1_Y33] has a documented phosphorylation enrichment of 0.529

In plain terms, LNERHYGGLTD [PGAM2_Y92_G97D] has a documented phosphorylation enrichment of 0.629

In plain terms, RVLQLYGCSPS [ASTL_Y279_K277Q] has a documented phosphorylation enrichment of 0.576

In plain terms, FADIAYNFRQG [PAH_Y166_H170Q_YF] has a documented phosphorylation enrichment of 0.41

In plain terms, TSAEGYQDVRD [ABLIM1_Y439_P434T] has a documented phosphorylation enrichment of 0.517

In plain terms, EDGCIYPGTIA [SMN1_Y109_A111G] has a documented phosphorylation enrichment of 0.529

In plain terms, GGGGGYNRSSG [FUS_Y232] has a documented phosphorylation enrichment of 0.435

In plain terms, GRERPYGGGGG [FUS_Y526_R521G] has a documented phosphorylation enrichment of 0.968

In plain terms, RNAAEYLLSSG [ABL1_Y139] has a documented phosphorylation enrichment of 0.294

In plain terms, EASEQHLTKAS [NRCAM_Y739_Y739H] has a documented phosphorylation enrichment of 0.343

In plain terms, GMKIVYVFVKK [DNAI2_Y5_E2K_YF] has a documented phosphorylation enrichment of 1.06

In plain terms, HNQDGYSFLSR [LDLR_Y845_P848L_YF] has a documented phosphorylation enrichment of 0.914

In plain terms, RGDIFYTSKLW [AKR1C3_Y81_E77G] has a documented phosphorylation enrichment of 0.803
